# System: A549/ATCC NSCLC
# METHOD: NCI-60 one-dose screen, 48 h (100 = growth as untreated, 0 = no growth, -100 = all killed)
# SETUP CONDITIONS: 10 µM unless noted
About 83,000 compounds went through this panel and 20% of them were active in at least one assay; those are over-represented in the sample as a whole.
# growth per entry
# value in %; strip the unit string

Here's what some known entries look like.
- MOLECULAR STRING: "COC(=O)[C@@H](C)C[C@H](Cc1ccccc1)NC(=O)c1csc([C@@H](C[C@H](C(C)C)N(C)C(=O)[C@@H](NC(=O)[C@H]2CCCN2C)C2CC2)OC(C)=O)n1"
  growth, %: 13.2
- MOLECULAR STRING: "c1ccc(Nc2nc(-c3ccccc3)c[se]2)cc1"
  growth, %: 87.5

Now let's try a different one.
input: Answer with growth of CC(=O)Nc1ccc(NC(=O)c2ccc([As](O)O)cc2)cc1 measured for A549/ATCC NSCLC.
output: 114
